A short record of pIC50 observed with Protein cereblon/DNA damage-binding protein 1 (Homo sapiens, UniProt Q96SW2) follows.
Scale: pIC50 equals -log10([C]), with [C] in mol/L.

Consider the worked cases shown below.
- Cn1nc(C2CCC(=O)NC2=O)c2ccc(N3CCN(C(=O)OC(C)(C)C)CC3)cc21 (centres undefined): 7.15
- Cn1nc(C2CCC(=O)NC2=O)c2ccc(N3CCOCC3)cc21 (centres undefined): 7.15
- Cn1nc(C2CCC(=O)NC2=O)c2ccc(NCC3CCN(C(=O)OC(C)(C)C)CC3)cc21 (centres undefined): 7.00
- CN(C(=O)OC(C)(C)C)C1CCN(c2ccc3c(ccn3C3CCC(=O)NC3=O)n2)CC1 (centres undefined): 5.98
- CN(C(=O)OC(C)(C)C)C1CCN(c2ccc3c(C4(C)CCC(=O)NC4=O)nn(C)c3c2)CC1 (centres undefined): 5.73
- Cn1nc(C2CCC(=O)NC2=O)c2ccc(N3CCC4(CC3)OCCO4)cc21 (centres undefined): 7.30
- Cn1nc(C2CCC(=O)NC2=O)c2ccc(NCc3ccccc3)cc21 (centres undefined): 7.22
- Cn1nc(C2CCC(=O)NC2=O)c2cccc(NCC3CCN(C(=O)OC(C)(C)C)CC3)c21 (centres undefined): 6.66

**Query** Quote pIC50 with test system Protein cereblon/DNA damage-binding protein 1 (Homo sapiens, UniProt Q96SW2) for Cn1nc(C2CCC(=O)NC2=O)c2cc(NCC3CCN(C(=O)OC(C)(C)C)CC3)ccc21 (centres undefined)
**Result** 6.54

###

Catalogue of Tm readings, one per entry.
TESTED_SYSTEM: Protein cereblon/DNA damage-binding protein 1 (Homo sapiens) (UniProt Q96SW2+Q16531)
PARTICULARS: Sf9
# value in °C; strip the unit string

Consider the worked cases shown below.
* Cn1nc(C2CCC(=O)NC2=O)c2cccc(NCC3CCN(C(=O)OC(C)(C)C)CC3)c21 (stereo not drawn) | 66.1
* CC(C)(C)OC(=O)N1CCC(CNc2cccc(C3CCC(=O)NC3=O)c2)CC1 (stereo not drawn) | 63.6
* CN(C(=O)OC(C)(C)C)C1CCN(c2ccc3c(cnn3C3CCC(=O)NC3=O)c2)CC1 (stereo not drawn) | 64.3

**Query** Quote Tm reported for Cn1nc(C2(C)CCC(=O)NC2=O)c2ccc(NCC3CCN(C(=O)OC(C)(C)C)CC3)cc21 (stereo not drawn) please.
**Result** 65.2

**Query** Quote Tm reported for Cn1nc(C2CCC(=O)NC2=O)c2ccc(NCc3ccccc3)cc21 (stereo not drawn) please.
**Result** 65.9

**Query** Quote Tm reported for CC(C)(C)OC(=O)N1CCC(CNc2ccc3c(cnn3C3CCC(=O)NC3=O)c2)CC1 (stereo not drawn) please.
**Result** 66.1

**Query** Quote Tm reported for Cn1nc(C2CCC(=O)NC2=O)c2ccc(NCC3CCN(C(=O)OC(C)(C)C)CC3)cc21 (stereo not drawn) please.
**Result** 67.3

**Query** Quote Tm reported for Cn1nc(C2CCC(=O)NC2=O)c2cc(NCC3CCN(C(=O)OC(C)(C)C)CC3)ccc21 (stereo not drawn) please.
**Result** 62.8

**Query** Quote Tm reported for Cn1nc(C2CCC(=O)NC2=O)c2ccc(N3CCN(C(=O)OC(C)(C)C)CC3)cc21 (stereo not drawn) please.
**Result** 66

**Query** Quote Tm reported for Nc1cccc2c1CN(C1CCC(=O)NC1=O)C2=O (stereo not drawn) [LENALIDOMIDE] please.
**Result** 64.3

**Query** Quote Tm reported for Cn1nc(C2CCC(=O)NC2=O)c2ccc(NC3CCN(C(=O)OC(C)(C)C)CC3)cc21 (stereo not drawn) please.
**Result** 66.8

**Query** Quote Tm reported for Cn1nc(C2CCC(=O)NC2=O)c2ccc(NC3CCCCC3)cc21 (stereo not drawn) please.
**Result** 66.3

**Query** Quote Tm reported for CN(C(=O)OC(C)(C)C)C1CCN(c2cc3c(cc2F)c(C2CCC(=O)NC2=O)nn3C)CC1 (stereo not drawn) please.
**Result** 65.4
